- Target Of Assay: T1, mαvβ5 (Mus musculus, UniProt O70309+P43406)
- T1 construct: The full extracellular domains for all α and β integrin subunits; (GGGS)3 linker (C); acidic coiled-coil with cysteine (C); GG-Avitag (C); hexa-histidine tag (C); basic coiled-coil with cysteine (C); made in house; host or cells: Expi293 cells
- T1 sequence (P43406 31-988 limits assumed): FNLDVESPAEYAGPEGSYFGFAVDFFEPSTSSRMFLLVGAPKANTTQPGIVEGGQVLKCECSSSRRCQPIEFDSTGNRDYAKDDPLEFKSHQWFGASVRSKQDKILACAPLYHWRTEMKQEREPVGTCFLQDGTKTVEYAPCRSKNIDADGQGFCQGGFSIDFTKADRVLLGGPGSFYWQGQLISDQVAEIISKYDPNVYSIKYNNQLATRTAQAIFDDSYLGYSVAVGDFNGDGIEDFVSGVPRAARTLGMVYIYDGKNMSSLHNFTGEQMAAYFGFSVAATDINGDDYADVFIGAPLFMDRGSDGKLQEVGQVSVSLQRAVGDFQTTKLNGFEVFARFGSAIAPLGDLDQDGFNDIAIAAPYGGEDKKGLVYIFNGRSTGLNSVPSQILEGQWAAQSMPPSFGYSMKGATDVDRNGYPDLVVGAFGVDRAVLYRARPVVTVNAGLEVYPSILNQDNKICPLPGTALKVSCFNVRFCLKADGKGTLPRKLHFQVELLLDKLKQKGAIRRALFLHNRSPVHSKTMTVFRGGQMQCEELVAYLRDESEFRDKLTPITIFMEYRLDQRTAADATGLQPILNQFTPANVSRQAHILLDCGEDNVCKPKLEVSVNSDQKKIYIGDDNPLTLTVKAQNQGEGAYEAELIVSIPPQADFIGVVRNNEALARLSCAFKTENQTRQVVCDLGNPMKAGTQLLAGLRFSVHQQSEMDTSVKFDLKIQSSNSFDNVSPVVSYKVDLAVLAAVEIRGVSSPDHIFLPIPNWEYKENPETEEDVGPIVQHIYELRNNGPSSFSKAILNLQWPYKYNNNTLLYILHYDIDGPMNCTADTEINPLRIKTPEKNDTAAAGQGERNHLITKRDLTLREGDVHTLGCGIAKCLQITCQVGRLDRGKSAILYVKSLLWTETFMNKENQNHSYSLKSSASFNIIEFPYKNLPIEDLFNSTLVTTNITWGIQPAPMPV
- T1 sequence (O70309 24-719 limits assumed): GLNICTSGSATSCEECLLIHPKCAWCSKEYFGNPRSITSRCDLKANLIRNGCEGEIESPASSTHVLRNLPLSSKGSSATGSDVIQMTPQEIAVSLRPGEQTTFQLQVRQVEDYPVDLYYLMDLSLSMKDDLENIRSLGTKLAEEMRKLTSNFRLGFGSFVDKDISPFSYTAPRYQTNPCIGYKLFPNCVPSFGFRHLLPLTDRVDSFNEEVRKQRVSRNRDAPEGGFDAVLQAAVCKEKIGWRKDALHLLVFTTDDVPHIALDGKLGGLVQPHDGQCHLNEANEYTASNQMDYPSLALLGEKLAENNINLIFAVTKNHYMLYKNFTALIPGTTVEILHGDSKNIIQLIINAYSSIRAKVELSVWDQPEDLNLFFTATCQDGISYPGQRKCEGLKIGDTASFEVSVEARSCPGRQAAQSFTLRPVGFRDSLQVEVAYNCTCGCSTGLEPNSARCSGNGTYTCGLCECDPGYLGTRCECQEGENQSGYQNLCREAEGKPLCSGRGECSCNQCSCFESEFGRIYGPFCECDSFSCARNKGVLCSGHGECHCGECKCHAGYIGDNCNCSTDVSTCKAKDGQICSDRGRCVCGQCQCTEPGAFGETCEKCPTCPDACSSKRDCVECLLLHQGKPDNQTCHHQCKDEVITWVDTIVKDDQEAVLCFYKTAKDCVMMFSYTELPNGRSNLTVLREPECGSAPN
- Run Description: Mouse AlphaLISA integrin-ligand blocking assay (vitronectin)
- Assay type: biochemical
- Conditions Used: Table 12; read-out: IC50 Mouse integrin AlphaLISA assays mαvβ5
Outcome Measure: IC50

molecule="Ab-31: integrin binder antibody, VH SEQ ID NO: 35, VL SEQ ID NO: 36 (antibody, V domains shown) VH: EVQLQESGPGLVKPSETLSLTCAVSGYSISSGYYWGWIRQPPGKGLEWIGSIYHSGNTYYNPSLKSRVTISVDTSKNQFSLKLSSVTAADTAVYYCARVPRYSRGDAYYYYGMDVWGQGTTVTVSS VL: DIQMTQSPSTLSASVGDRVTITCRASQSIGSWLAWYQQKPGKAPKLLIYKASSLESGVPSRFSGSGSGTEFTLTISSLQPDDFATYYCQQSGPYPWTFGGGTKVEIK" value_reported="> 0.25 µM"
